Consider the following molecules; for each one, report its INH.
- Measured Target: UniProt Q9NPD5
- Sequence (Q9NPD5 whole entry): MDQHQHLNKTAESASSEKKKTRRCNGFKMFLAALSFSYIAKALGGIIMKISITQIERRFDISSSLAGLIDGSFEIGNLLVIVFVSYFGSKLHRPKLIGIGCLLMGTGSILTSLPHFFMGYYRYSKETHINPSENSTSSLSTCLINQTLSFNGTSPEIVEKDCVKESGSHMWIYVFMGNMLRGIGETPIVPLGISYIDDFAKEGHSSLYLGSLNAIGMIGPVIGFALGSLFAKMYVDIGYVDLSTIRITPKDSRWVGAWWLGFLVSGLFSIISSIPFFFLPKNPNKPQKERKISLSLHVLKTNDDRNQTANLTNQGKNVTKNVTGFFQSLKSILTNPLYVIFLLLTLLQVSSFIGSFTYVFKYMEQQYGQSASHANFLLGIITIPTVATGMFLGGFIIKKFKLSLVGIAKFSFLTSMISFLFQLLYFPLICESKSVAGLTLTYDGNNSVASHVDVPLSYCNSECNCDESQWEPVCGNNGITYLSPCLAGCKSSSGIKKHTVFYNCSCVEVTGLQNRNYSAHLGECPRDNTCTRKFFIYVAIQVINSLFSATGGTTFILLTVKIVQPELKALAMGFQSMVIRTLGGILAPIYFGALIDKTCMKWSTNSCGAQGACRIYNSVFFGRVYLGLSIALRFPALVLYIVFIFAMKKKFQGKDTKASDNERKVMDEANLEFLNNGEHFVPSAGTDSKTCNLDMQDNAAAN
- Assay Explanation: Inhibition of human liver OATP1B3 expressed in HEK293 Flp-In cells assessed as reduction in [3H]E17-betaG uptake at 20 uM incubated for 5 mins by scintillation counting
- Assay Conditions: hek293, 5 min
Please don't drop the unit; write it after the number.

Would you mind telling me what INH value was observed for c1cnc2cc3c(cc2n1)[C@@H]1CNC[C@H]3C1 [VARENICLINE] ?
0.8%

Would you mind telling me what INH value was observed for Cc1nccn1CC1CCc2c(c3ccccc3n2C)C1=O (configuration not stated) [ONDANSETRON] ?
-3.6%

Would you mind telling me what INH value was observed for CCCCNC(=O)NS(=O)(=O)c1ccc(C)cc1 [TOLBUTAMIDE] ?
5.8%

Would you mind telling me what INH value was observed for CCCC1O[C@@H]2C[C@H]3[C@@H]4CCC5=CC(=O)C=C[C@]5(C)[C@H]4[C@@H](O)C[C@]3(C)[C@]2(C(=O)CO)O1 (some centres not stated) [BUDESONIDE] ?
79%

Would you mind telling me what INH value was observed for CC[C@H]1OC(=O)[C@H](C)[C@@H](O[C@H]2C[C@@](C)(OC)[C@@H](O)[C@H](C)O2)[C@H](C)[C@@H](O[C@@H]2O[C@H](C)C[C@H](N(C)C)[C@H]2O)[C@](C)(O)C[C@@H](C)C(=O)[C@H](C)[C@@H](O)[C@]1(C)O [ERYTHROMYCIN] ?
45.8%

Would you mind telling me what INH value was observed for CC(C)OC(=O)C(C)(C)Oc1ccc(C(=O)c2ccc(Cl)cc2)cc1 [FENOFIBRATE] ?
-10.8%

Would you mind telling me what INH value was observed for CCOC(=O)C1=C(C)NC(C)=C(C(=O)OC)C1c1cccc(Cl)c1Cl (configuration not stated) [FELODIPINE] ?
18.4%

Where do the numbers come from? From ChEMBL document CHEMBL2163248.
